Test: Solubility of the prodrugs in PBS (67 mM phosphate buffer pH 7.4)
Settings: 67 mM phosphate buffer pH 7.4 (PBS), 37 °C, pH 7.4, aqueous buffer, thermodynamic from solid
MEASURED_QUANTITY: solubility thermodynamic (µg/mL)

Answered cases to consult:
Per the record, COc1ccc2cc(C(C)C(=O)OCCn3ccnc3)ccc2c1 (stereo not drawn) has solubility thermodynamic of 146

The compound O=C(Cc1ccccc1Nc1c(Cl)cccc1Cl)OCCn1ccnc1-c1ccccc1 [DPX-1-0007] showed solubility thermodynamic equal to 43

Memo: CCCc1nccn1CCOC(=O)Cc1ccccc1Nc1c(Cl)cccc1Cl [DPX-1-0008] , reported solubility thermodynamic: 0.3

I. CC(C)Cc1ccc(C(C)C(=O)OCCc2ccccn2)cc1 (stereo not drawn) [DPX-3-0004]
II. CC(C)Cc1ccc(C(C)C(=O)OCCn2ccnc2-c2ccccc2)cc1 (stereo not drawn) [DPX-3-0007]
query: Which of the two items, I and II , has the greater recorded solubility thermodynamic? Bench note: the answer is the label of the chosen record.
result: I
(I: 15 µg/mL, II: 1 µg/mL)

The reported measurements were obtained from patent US9809557B2.
